Data provenance is ChEMBL document CHEMBL5291721.

- test-target: Sodium-dependent noradrenaline transporter (Homo sapiens); further: assay procedure not described here
- Sequence (P23975 whole entry): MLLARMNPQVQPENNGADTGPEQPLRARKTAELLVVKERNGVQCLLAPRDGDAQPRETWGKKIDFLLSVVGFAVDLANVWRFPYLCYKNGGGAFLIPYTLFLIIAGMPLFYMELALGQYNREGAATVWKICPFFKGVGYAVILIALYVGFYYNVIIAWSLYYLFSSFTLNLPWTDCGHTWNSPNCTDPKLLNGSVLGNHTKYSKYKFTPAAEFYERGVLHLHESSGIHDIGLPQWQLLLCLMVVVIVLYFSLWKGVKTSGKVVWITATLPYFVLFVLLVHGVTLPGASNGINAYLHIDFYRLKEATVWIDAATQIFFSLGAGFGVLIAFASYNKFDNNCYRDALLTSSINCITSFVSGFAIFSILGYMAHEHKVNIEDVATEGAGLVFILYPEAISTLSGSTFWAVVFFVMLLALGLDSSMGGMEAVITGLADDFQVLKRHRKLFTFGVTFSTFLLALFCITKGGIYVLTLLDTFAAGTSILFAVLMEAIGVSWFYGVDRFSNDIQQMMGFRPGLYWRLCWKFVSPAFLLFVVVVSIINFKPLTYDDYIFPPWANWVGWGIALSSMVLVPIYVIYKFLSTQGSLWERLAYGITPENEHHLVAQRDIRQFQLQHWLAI
attribute-measured: AC50

> print(dat)
                               entry.smiles  attribute.measured  measurement
1  CC1=C(/C=C/C(C)=C/C=C/C(C)=C/C=C/C=C(C)/C=C/C=C(C)/C=C/C2=C(C)CCCC2(C)C)C(C)(C)CCC1                AC50      > 30 µM
2                   CC(C)(S)[C@@H](N)C(=O)O                AC50      > 30 µM
3  CC(=O)[C@@]1(O)CC[C@H]2[C@@H]3C=C(C)C4=CC(=O)CC[C@]4(C)[C@H]3CC[C@@]21C                AC50      > 30 µM
4  CCC(CC)(CC(=O)Nc1cccc(/C=C/c2nc(C3CCC3)cs2)c1)C(=O)O                AC50      > 30 µM

Pending compound:
Provide the documented AC50 with Sodium-dependent noradrenaline transporter (Homo sapiens) as the system for "Nc1nc2nc[nH]c2c(=S)[nH]1" > 30 µM

----------
Hi! I'm sharing some AC50 results obtained with Equilibrative nucleoside transporter 1 (Homo sapiens, UniProt Q99808).
Sequence (Q99808 whole entry): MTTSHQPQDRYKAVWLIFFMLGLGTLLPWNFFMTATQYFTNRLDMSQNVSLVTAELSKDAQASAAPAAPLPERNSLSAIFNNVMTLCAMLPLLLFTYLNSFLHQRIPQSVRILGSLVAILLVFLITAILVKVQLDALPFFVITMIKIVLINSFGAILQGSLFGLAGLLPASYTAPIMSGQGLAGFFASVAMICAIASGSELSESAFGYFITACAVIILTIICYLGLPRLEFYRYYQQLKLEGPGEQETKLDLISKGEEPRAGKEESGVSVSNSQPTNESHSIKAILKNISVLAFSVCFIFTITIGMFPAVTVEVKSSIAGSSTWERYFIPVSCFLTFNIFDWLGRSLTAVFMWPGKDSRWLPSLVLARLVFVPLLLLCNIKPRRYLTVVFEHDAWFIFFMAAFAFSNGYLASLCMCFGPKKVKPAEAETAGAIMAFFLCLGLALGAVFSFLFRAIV

molecule	test-target	AC50
CO[C@H]1C[C@@H]2CC[C@@H](C)[C@@](O)(O2)C(=O)C(=O)N2CCCC[C@H]2C(=O)O[C@H]([C@H](C)C[C@@H]2CC[C@@H](O)[C@H](OC)C2)CC(=O)[C@H](C)/C=C(\C)[C@@H](O)[C@@H](OC)C(=O)[C@H](C)C[C@H](C)/C=C/C=C/C=C/1C	Equilibrative nucleoside transporter 1 (Homo sapiens, UniProt Q99808)	6.8 µM
Nc1nc(Cl)nc2c1ncn2[C@H]1C[C@H](O)[C@@H](CO)O1	Equilibrative nucleoside transporter 1 (Homo sapiens, UniProt Q99808)	> 30 µM
C[C@H]1CNCCc2ccc(Cl)cc21	Equilibrative nucleoside transporter 1 (Homo sapiens, UniProt Q99808)	> 30 µM
O=C(O[C@H]1C[C@H]2CC[C@@H](C1)[N+]21CCCC1)C(O)(c1ccccc1)c1ccccc1	Equilibrative nucleoside transporter 1 (Homo sapiens, UniProt Q99808)	> 30 µM
CCCCN1C[C@H](O)[C@@H](O)[C@H](O)[C@H]1CO	Equilibrative nucleoside transporter 1 (Homo sapiens, UniProt Q99808)	> 30 µM

# AC50 lookup, item CNC1Cc2ccccc2N(C)c2ccccc21 (configuration not stated) > 30 µM

# AC50 lookup, item "NCC[C@H](O)C(=O)N[C@@H]1C[C@H](N)[C@@H](O[C@H]2O[C@H](CN)[C@@H](O)[C@H](O)[C@H]2O)[C@H](O)[C@H]1O[C@H]1O[C@H](CO)[C@@H](O)[C@H](N)[C@H]1O" > 10 µM

----------
- test-target: UniProt:P31645
- Sequence (P31645 whole entry): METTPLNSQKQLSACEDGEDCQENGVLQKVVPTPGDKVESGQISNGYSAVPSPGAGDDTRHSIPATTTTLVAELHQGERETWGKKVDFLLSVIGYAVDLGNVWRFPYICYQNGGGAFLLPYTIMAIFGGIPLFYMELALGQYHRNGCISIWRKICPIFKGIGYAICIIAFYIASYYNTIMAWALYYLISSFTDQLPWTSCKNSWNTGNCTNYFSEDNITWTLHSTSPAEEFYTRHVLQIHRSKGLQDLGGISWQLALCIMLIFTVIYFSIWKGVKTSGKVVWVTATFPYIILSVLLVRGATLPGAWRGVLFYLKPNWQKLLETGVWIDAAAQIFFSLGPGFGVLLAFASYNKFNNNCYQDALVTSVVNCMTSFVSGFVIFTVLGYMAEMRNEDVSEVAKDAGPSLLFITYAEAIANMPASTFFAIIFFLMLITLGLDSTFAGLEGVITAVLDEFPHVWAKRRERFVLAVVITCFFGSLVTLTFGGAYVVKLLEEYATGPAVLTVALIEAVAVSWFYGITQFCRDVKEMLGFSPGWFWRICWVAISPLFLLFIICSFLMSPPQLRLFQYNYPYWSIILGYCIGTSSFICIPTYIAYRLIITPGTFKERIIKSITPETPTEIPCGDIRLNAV
attribute-measured: AC50

Field: example entries. Status: answers known.
> print(dat)
                                   compound     test.target  measurement
1  CC(C)(C)C(=O)Oc1ccc(S(=O)(=O)Nc2ccccc2C(=O)NCC(=O)O)cc1  UniProt:P31645      > 10 µM
2  CN1CCN(CC/C=C2/c3ccccc3Sc3ccc(S(=O)(=O)N(C)C)cc32)CC1  UniProt:P31645      > 10 µM
3  CCC(C(=O)O)c1ccc(N2Cc3ccccc3C2=O)cc1 (stereo not drawn)  UniProt:P31645      > 30 µM
4  CC[C@H]1[C@@H](O)[C@@H]2[C@H](CC[C@]3(C)[C@@H]([C@H](C)CCC(=O)O)CC[C@@H]23)[C@@]2(C)CC[C@@H](O)C[C@@H]12  UniProt:P31645      > 30 µM
5  CC1(C)NC(=O)N(c2ccc([N+](=O)[O-])c(C(F)(F)F)c2)C1=O [NILUTAMIDE]  UniProt:P31645      > 30 µM

# AC50 lookup, item "O=C(O)/C=C/c1ccc(Cn2ccnc2)cc1" > 30 µM

# AC50 lookup, item "Clc1ccc(CCCOCCCN2CCCCC2)cc1" 9.9 µM

# AC50 lookup, item "CN(C)CCC=C1c2ccccc2C(C)(C)c2ccccc21" 0.24 µM

# AC50 lookup, item "O=C1Nc2ccc(Cl)cc2[C@@](C#CC2CC2)(C(F)(F)F)O1" > 30 µM

# AC50 lookup, item C=CCc1ccccc1OCC(O)CNC(C)C (stereo not drawn) 11.5 µM

# AC50 lookup, item NS(=O)(=O)Cc1noc2ccccc12 [ZONISAMIDE] > 10 µM

# AC50 lookup, item "COc1ccc2c3c1O[C@H]1[C@@H](O)C=C[C@H]4[C@@H](C2)N(C)CC[C@@]341" > 30 µM

# AC50 lookup, item "C[C@H](CSC(=O)c1ccccc1)C(=O)N1C[C@@H](Sc2ccccc2)C[C@H]1C(=O)O" > 10 µM
